# Target system: T1, human GIPR (human, UniProt P48546 22-466)
# T1 sequence (looked up): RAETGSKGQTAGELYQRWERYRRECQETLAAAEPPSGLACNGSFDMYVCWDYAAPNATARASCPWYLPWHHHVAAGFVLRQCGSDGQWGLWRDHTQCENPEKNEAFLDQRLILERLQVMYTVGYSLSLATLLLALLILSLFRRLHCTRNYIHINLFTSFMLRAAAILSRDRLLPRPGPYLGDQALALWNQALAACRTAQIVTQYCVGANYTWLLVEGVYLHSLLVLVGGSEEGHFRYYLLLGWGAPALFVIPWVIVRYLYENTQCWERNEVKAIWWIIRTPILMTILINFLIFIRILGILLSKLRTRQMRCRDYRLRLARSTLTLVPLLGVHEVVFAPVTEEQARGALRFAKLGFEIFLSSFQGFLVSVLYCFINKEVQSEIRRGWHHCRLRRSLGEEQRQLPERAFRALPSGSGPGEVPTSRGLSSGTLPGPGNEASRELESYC
# Experiment: cell-based or functional assay
Square brackets hold non-standard residues; d marks the D form. Side chains are listed from the residue outwards. αMeF = C[C@](N)(Cc1ccccc1)C(=O)O; Iva = CC[C@](C)(N)C(=O)O; Oda = not defined here; Aib = CC(C)(N)C(=O)O
Parameter measured: Agonist activity (EC50), Cre-luc reporter assay
Remember to follow the number with its unit.

Req: Determine from records and report Agonist activity (EC50), Cre-luc reporter assay for Me-Y[Aib]EGT[αMeF]TSDK([Gly-Gly-Gly-Gly-Oda])SK[Aib]LDKQRQ[Iva]EFVRHLLNK[Aib]TRQRY-NH2 (reading uncertain; also: printed as Me-Tyr-Aib-Glu-Gly-Thr-αMePhe-Thr-Ser-Asp-Lys(-Gly-Gly-Gly-Gly-Oda)-Ser-Lys-Aib-Leu-Asp-Lys-Gln-Arg-Gln-Iva-Glu-Phe-Val-Arg-His-Leu-Leu-Asn-Lys-Aib-Thr-Arg-Gln-Arg-Tyr-NH2)
Resp: 0.38 nM
